Biological target: T1, cMetECDHis (human, UniProt P08581 25-932, limits assumed, biotinylated in the cross-block ELISA of Example 17)
T1 construct: Expressed in HEK-293F cells; also called soluble cMetECDHis; biotinylated cMetECDHis
Assay: cross-block ELISA; competitor 101

{"columns": ["binder", "outputUnit", "residual binding, % of no competitor"],
 "data": [
  ["anti-c-Met HuMab 181 (IgG1) (antibody, V domains shown, also called TH1016-181; PC1016-181) VH: QVQLVQSGAEVKKPGASVKVSCKASGYTFTSYGISWVRQAPGQGLEWMGWISTYNGYTNYAQKLQGRVTMTTDTSTSTAYMELRSLRSDDTAVYYCARDLRGTAYFDYWGQGTLVTVSS VL: DIQMTQSPSSVSASVGDRVTITCRASQGISNWLAWYQHKPGKAPKLLIYAASSLLSGVPSRFSGSGSGTDFTLTISSLQPEDFATYYCQQANSFPITFGQGTRLEIK", "%", 2.4],
  ["IgG1-1016-058 (antibody, V domains shown, also called IgG1-058; TH1016-058) VH: EVQLVESGGGLVKPGGSLKLSCAASGFTFSDYYMYWVRQTPEKRLEWVATISDDGSYTYYPDSVKGRFTISRDNAKNNLYLQMSSLKSEDTAMYYCAREGLYYYGSGSYYNQDYWGQGTLVTVSS VL: AIQLTQSPSSLSASVGDRVTITCRASQGLSSALAWYRQKPGKAPKLLIYDASSLESGVPSRFSGSGSGTDFTLTISSLQPEDFATYYCQQFTSYPQITFGQGTRLEIK", "%", 104],
  ["anti-c-Met HuMab 005 (IgG1) (antibody, V domains shown, also called TH1016-005; PC1016-005) VH: QVQLVQSGAEVKKPGSSVKVSCKASGGTFSSYGFGWVRQAPGQGLEWMGRISPILGIANYAQMFQGRVTITADKSTSTAYMELSSLRSEDTAVYYCARDVGYDWPDTFDIWGQGTMVIVSS VL: DIQMTQSPSSLSASVGDRVTITCRASQGISSWLAWYQQKPEKAPKSLIYAASSLQSGVPSRFSGGGSGTDFTLTISSLQPEDFATYYCQQYNSFPPTFGQGTKVEIK", "%", 103]
]}
